- tested system: Cytochrome P450 3A4 (Homo sapiens) (UniProt P08684)
- Sequence (P08684 whole entry, looked up): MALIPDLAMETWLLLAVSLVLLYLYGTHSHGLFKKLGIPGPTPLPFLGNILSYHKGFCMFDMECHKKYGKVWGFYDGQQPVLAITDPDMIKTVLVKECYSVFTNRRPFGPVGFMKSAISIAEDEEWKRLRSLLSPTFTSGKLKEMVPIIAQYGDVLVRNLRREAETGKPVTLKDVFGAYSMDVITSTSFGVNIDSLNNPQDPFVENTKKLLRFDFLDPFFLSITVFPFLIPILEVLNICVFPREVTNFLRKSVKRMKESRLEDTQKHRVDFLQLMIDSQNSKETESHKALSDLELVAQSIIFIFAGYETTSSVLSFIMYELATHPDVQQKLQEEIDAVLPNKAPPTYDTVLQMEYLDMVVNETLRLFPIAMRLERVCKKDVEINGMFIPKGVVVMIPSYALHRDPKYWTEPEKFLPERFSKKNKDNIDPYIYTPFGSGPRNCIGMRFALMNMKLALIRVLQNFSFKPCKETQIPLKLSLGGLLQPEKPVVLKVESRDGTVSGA
- method summary: Cytochrome panel assay with activity outcomes; on activity, negative = inhibition: on the % scale 0 is the no-effect control and ±100 the full control effect
- measurement setup: recombinant CYP, pro-luciferin dealkylation, luminescence, p450-cyp3a4; series mostly up to 57.1 µM
About 5,100 (32%) of roughly 16,000 compounds were called active. Inconclusive results (about 25%) are left out. The list shows a part of the results.
Provide the recorded activity, negative = inhibition for the entries that follow.

Sample answers from the record:
O=c1c2c(-c3cccs3)csc2ncn1-c1ccc(Br)cc1 ... -3.71% [at 2.29 µM] (inactive)
c1ccc(C2CCC(N3CCC(N4CCCCC4)CC3)CC2)cc1 (stereo not given) ... -4.19% [at 2.29 µM] (inactive)
O=C1C=C[C@@H](O)[C@H]2[C@@H]3C(=O)N(c4cccc(Oc5ccccc5)c4)C(=O)[C@@H]3CC[C@H]12 ... -11.6% [at 11.4 µM] (inactive)
c1ccc(CCNc2ccccn2)nc1 ... -14.6% [at 11.4 µM] (inactive)
Cc1ccc(CNC(=O)Cn2c(=O)oc3ccccc32)o1 ... 1.22% [at 11.4 µM] (inactive)

I would be grateful if you could provide activity, negative = inhibition for each of the following entries.
1. COc1cccc(CN2CCN(Cc3cc(OC)c(OC)cc3[N+](=O)[O-])CC2)c1
2. Clc1ccccc1C(Nc1ncccn1)Nc1ncccn1
3. Nc1ncnc2c1ncn2C[C@@H](O)C(=O)O

Result:
["-15.7% [at 2.29 µM] (inactive)", "4.33% [at 11.4 µM] (inactive)", "1.58% [at 11.4 µM] (inactive)"]

###

- tested system: Cytochrome P450 3A4 (Homo sapiens) (UniProt P08684)
- method summary: Cytochrome panel assay with activity outcomes; on activity, negative = inhibition: on the % scale 0 is the no-effect control and ±100 the full control effect
- measurement setup: recombinant CYP, pro-luciferin dealkylation, luminescence, p450-cyp3a4; series mostly up to 57.1 µM
Hit rate of the full screen: of about 16,000 compounds, about 5,100 (32%) were called active. Inconclusive results (about 25%) are left out. The list shows a part of the results.
quantity kind: activity, negative = inhibition

Sample answers from the record:
CN(Cc1cccc2ccccc12)Cc1cccc2ccccc12 ... -53.9% [at 11.4 µM] (inactive)
CC(=O)OC[C@@H]1O[C@@H](O/N=C2/C[C@@H](O)[C@@H](O)[C@@H]3[C@@H]4C(=O)N(C5CCCCC5)C(=O)[C@H]4CC[C@@H]23)[C@H](OC(C)=O)[C@H](OC(C)=O)[C@@H]1OC(C)=O ... -21.5% [at 11.4 µM] (inactive)
NNC(=O)c1ccc[n+](CCc2ccccc2)c1 ... -7.56% [at 11.4 µM] (inactive)
CCCCNN ... -7.03% [at 11.4 µM] (inactive)
Cn1ncc([N+](=O)[O-])c1C(=O)N1CCOCC1 ... -9.46% [at 2.29 µM] (inactive)

I would be grateful if you could provide activity, negative = inhibition for each of the following entries.
1. C#CCCCO/N=C1/C[C@@H](O)[C@@H](O)[C@@H]2[C@@H]3C(=O)N(CC)C(=O)[C@H]3CC[C@@H]12
2. Cc1cc2c(=O)[nH]c(N)nc2nc1C
3. Cc1cc(C)c(O)c(Cc2cccc(Cc3cc(C)cc(C)c3O)c2O)c1
4. CCc1ccccc1NC(=O)CSc1nc(-c2ccccc2)nn1C(=O)c1cccc([N+](=O)[O-])c1
5. C[C@H](c1ccccc1)N1C(=O)[C@H]2[C@@H]3[C@H](O)[C@H](O)CC(=O)[C@H]3CC[C@H]2C1=O
6. C#CCCCO/N=C1/C[C@@H](O)[C@@H](O)[C@@H]2[C@@H]3C(=O)N(CC)C(=O)[C@H]3CC[C@H]12

Result:
1: -23.5% [at 11.4 µM] (inactive); 2: -3.61% [at 11.4 µM] (inactive); 3: 6.11% [at 11.4 µM] (inactive); 4: -8.74% [at 2.29 µM] (inactive); 5: -18.1% [at 11.4 µM] (inactive); 6: -27.7% [at 11.4 µM] (inactive)

I would be grateful if you could provide activity, negative = inhibition for each of the following entries.
1. CCCCc1ccc(NC(=S)NCc2cccs2)cc1
2. NC(N)=NC(N)=Nc1ccc(S(=O)(=O)O)cc1
3. CC(C)CO/N=C1/C[C@@H](O)[C@@H](O)[C@@H]2[C@@H]3C(=O)N([C@@H](C)c4ccccc4)C(=O)[C@H]3CC[C@@H]12
4. N=C(N)SCCSC(=N)N

Result:
1: -10% [at 2.29 µM] (inactive); 2: -0.586% [at 11.4 µM] (inactive); 3: -29.6% [at 11.4 µM] (inactive); 4: -5.54% [at 11.4 µM] (inactive)

I would be grateful if you could provide activity, negative = inhibition for each of the following entries.
1. CCOC(=O)N/N=C1/C[C@@H](O)[C@@H](O)[C@@H]2[C@@H]3C(=O)N([C@@H](C)c4ccccc4)C(=O)[C@H]3CC[C@@H]12
2. CC1=C[N+](=O)c2ccccc2[N+]1=O
3. CCc1sc(-c2c(C#N)c(N)nc3c2CCCCCC3)cc1[N+](=O)[O-]

Result:
1: -20.9% [at 11.4 µM] (inactive); 2: -3.77% [at 11.4 µM] (inactive); 3: -20.1% [at 2.29 µM] (inactive)

Problem: Missing value: activity, negative = inhibition, Cytochrome P450 3A4 (Homo sapiens) (UniProt P08684), entry C#CCCCO/N=C1/C[C@@H](O)[C@@H](O)[C@@H]2[C@@H]3C(=O)N(Cc4ccccc4)C(=O)[C@H]3CC[C@@H]12 . Fill in?
Result: -23.2% [at 11.4 µM] (inactive)

###

- tested system: Cytochrome P450 3A4 (Homo sapiens)
- method summary: Cytochrome panel assay with activity outcomes
- measurement setup: recombinant CYP, pro-luciferin dealkylation, luminescence, p450-cyp3a4; series mostly up to 57.1 µM
- Experimental: The P450 gene superfamily is involved in the metabolism and clearance of xenobiotics. This assay used various human CYP P450 isozymes to measure the dealkylation of various pro-luciferin substrates to luciferin. The luciferin is then measured by luminescence after the addition of a luciferase detection reagent. […] Inhibitors and some substrates limit the production of luciferin, and decrease measured luminescence. […] 8, Detection, 1 sec, ViewLux luminescent read […]
About 5,100 (32%) of roughly 16,000 compounds were called active. Roughly 25% stayed inconclusive and do not appear here. The call rests on the fitted dose curve; in most records, active means well fitted curve in the direction sought with a large enough effect; inconclusive means small, poorly fitted or top-dose-only effect, or effect the other way; inactive means no such curve, though single readings can be large or run the other way. The list shows a part of the results.
Entry note: the call must match one of active, inactive

Previously resolved entries follow.
Cc1cc2cc(C)c3nnc(SCC(=O)NCc4ccc5c(c4)OCO5)n3c2cc1C ... active
CC(C)n1nnnc1SCC(=O)c1ccc2c(c1)OCCO2 ... inactive
COc1ccc(Nc2ncc3c(n2)CC(c2ccc(C)cc2)CC3=O)cc1 (stereo unspecified) ... active
CCOC(=O)CSCC(NC(=O)OC(C)(C)C)C(=O)OCC (stereo unspecified) ... inactive
CC1CC(=O)c2cnc(N)nc2C1 (stereo unspecified) ... inactive
O=S(=O)(N/N=C/c1ccc2c(c1)OCCO2)c1ccc(Cl)cc1 ... active
CC1(CCC#N)N=C(SCCC#N)N(c2ccccc2)C1=O (stereo unspecified) ... inactive
CCn1c(SCc2ccc(C)cc2)nnc1-c1nn(-c2ccccc2)ccc1=O ... active
Cc1ccc2cc(C)c3nnc(SCC(=O)NCc4ccco4)n3c2c1 ... active
COc1ccc(C2CC(=O)c3cnc(Nc4cc(C)cc(C)c4)nc3C2)cc1 (stereo unspecified) ... active

Pending compound:
Problem: Please state the recorded outcome for this compound: O=S(=O)(N/N=C\c1ccc2c(c1)OCO2)c1ccc(Cl)cc1
Result: active

###

- tested system: Cytochrome P450 3A4 (Homo sapiens) (UniProt P08684)
- method summary: Cytochrome panel assay with activity outcomes
- measurement setup: recombinant CYP, pro-luciferin dealkylation, luminescence, p450-cyp3a4; series mostly up to 57.1 µM
- Experimental: The P450 gene superfamily is involved in the metabolism and clearance of xenobiotics. This assay used various human CYP P450 isozymes to measure the dealkylation of various pro-luciferin substrates to luciferin. The luciferin is then measured by luminescence after the addition of a luciferase detection reagent. […] Inhibitors and some substrates limit the production of luciferin, and decrease measured luminescence. […] 8, Detection, 1 sec, ViewLux luminescent read […]
In all, about 16,000 compounds went through this assay and about 5,100 (32%) were called active. Roughly 25% stayed inconclusive and do not appear here. Calls come from the whole dose curve; as a rule, active = well fitted curve in the direction sought with a large enough effect; inconclusive = small, poorly fitted or top-dose-only effect, or effect the other way; inactive = no such curve, though single readings can be large or run the other way. This is one part of the list.
Entry note: the call must match one of yes (1) (active), no (0) (inactive)

COC(=O)[C@@]1(Cc2ccc(F)cc2)[C@H]2c3cc(C(=O)N(C)C)n(Cc4c(CO)[nH]cc(C)c4=O)c3C[C@H]2CN1C(=O)c1ccccc1 ... yes (1)
COCCn1c(=O)c(-c2ccc(Cl)cc2)nc2cnc(OC)nc21 ... yes (1)
COCCn1c(=O)c(C)nc2cnc(Oc3ccc(OC)cc3)nc21 ... yes (1)
COc1ccc(CCNC(=O)COc2ccc(S(=O)(=O)NC3CCCCC3)cc2Cl)cc1 ... yes (1)
COc1cccc(OC)c1OCCCN1CCOCC1 ... no (0)
COCCn1c(=O)c(-c2ccc(OC)cc2)nc2cnc(OC)nc21 ... yes (1)
CCn1c(COc2ccc(C)cc2)nnc1SCc1ccc(C#N)cc1 ... yes (1)
COc1ccc(CCCC(=O)NC2CCCCC2)cc1 ... yes (1)

Problem: Please state the recorded outcome for this molecule: Cc1cc2c(s1)CCCCC(=O)N2
Result: no (0)

Problem: Please state the recorded outcome for this molecule: COc1ccc(/C=N/NC(=O)CCCC(=O)NC2CCCCC2)cc1
Result: yes (1)

Problem: Please state the recorded outcome for this molecule: CCn1c(SCc2ccc(C#N)cc2)nnc1-c1ccc(S(=O)(=O)N2CCCCC2)cc1
Result: no (0)

The reported numbers originate from PubChem BioAssay AID1851.
